Provenance of the data: patent US12338199B2

# assayedSystem: LXR alpha (Homo sapiens)
# Construct: LXR alpha or beta LBD-GST; purchased ThermoFisher PV4655
# Sequence (Q13133 209-447 limits assumed): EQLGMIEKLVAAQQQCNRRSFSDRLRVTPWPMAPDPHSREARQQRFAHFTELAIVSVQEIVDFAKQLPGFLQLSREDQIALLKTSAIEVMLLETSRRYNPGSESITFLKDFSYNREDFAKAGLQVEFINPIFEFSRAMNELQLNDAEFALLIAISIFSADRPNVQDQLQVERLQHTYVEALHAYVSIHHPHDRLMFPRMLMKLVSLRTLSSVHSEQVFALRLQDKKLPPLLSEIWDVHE
# measurementDescription: LanthaScreen TR-FRET LXR alpha Coactivator Assay (cell-free binding)
# runParameters: TR-FRET, 12-point curve; read-out: Cell free binding LXRα IC50
pIC50: −log10 of the molar value. Counter-ions that a name gives are not always drawn.
assayMetric: pIC50

# molecule C[C@]1(C(=O)NC(=O)[C@@]2(C)CCC[C@]3(C)c4cc(NC(=O)[C@@H](N)CO)ccc4CC[C@@H]23)CCC[C@]2(C)c3cc(O)ccc3CC[C@@H]12 ; its pIC50 = > 8.00

Record C[C@]1(C(=O)NC(=O)[C@@]2(C)CCC[C@]3(C)c4cc(NC(=O)[C@@H](N)CCC(=O)O)ccc4CC[C@@H]23)CCC[C@]2(C)c3cc(O)ccc3CC[C@@H]12 [Compound 9o, Trifluoroacetic Acid Salt] , field pIC50: 7.00 to 8.00

The molecule identified as C[C@]1(C(=O)NC(=O)[C@@]2(C)CCC[C@]3(C)c4cc(O)ccc4CC[C@@H]23)CCC[C@]2(C)c3cc(N)ccc3CC[C@@H]12 registered its pIC50 at > 8.00

###

# Test system: THP1/LXR-Luc cells
# measurementDescription: LXR-luciferase reporter bioassay in PMA-differentiated THP1/LXR-Luc cells
# Type: cell-based, human
# runParameters: PMA-differentiated THP1/LXR-Luc cells, 48 hours, luciferase activity
Counter-ions that a name gives are not always drawn.
assayMetric: S/N (signal to noise, ratio of RLU of standard one over RLU of standard eight)
The answer should be written as a number, with no unit following it.

Entry under test: C[C@]1(C(=O)NC(=O)[C@@]2(C)CCC[C@]3(C)c4cc(NC(=O)[C@@H](N)CO)ccc4CC[C@@H]23)CCC[C@]2(C)c3cc(O)ccc3CC[C@@H]12 . Its S/N (signal to noise, ratio of RLU of standard one over RLU of standard eight) was 5.7

Lab note: C[C@]1(C(=O)NC(=O)[C@@]2(C)CCC[C@]3(C)c4cc(NC(=O)[C@@H](N)CCC(=O)O)ccc4CC[C@@H]23)CCC[C@]2(C)c3cc(O)ccc3CC[C@@H]12 [Compound 9o, Trifluoroacetic Acid Salt] gave S/N (signal to noise, ratio of RLU of standard one over RLU of standard eight) of 8.3

Briefly, S/N (signal to noise, ratio of RLU of standard one over RLU of standard eight) measured for C[C@]1(C(=O)NC(=O)[C@@]2(C)CCC[C@]3(C)c4cc(NC(=O)[C@@H](N)CCCCN)ccc4CC[C@@H]23)CCC[C@]2(C)c3cc(O)ccc3CC[C@@H]12 [Compound 9l, Trifluoroacetic Acid Salt] : 8.9

Reported S/N (signal to noise, ratio of RLU of standard one over RLU of standard eight) of C[C@]1(C(=O)NC(=O)[C@@]2(C)CCC[C@]3(C)c4cc(O)ccc4CC[C@@H]23)CCC[C@]2(C)c3cc(N)ccc3CC[C@@H]12 : 15.9

###

# Tested on: THP1/LXR-Luc/Her2 cells
# measurementDescription: THP1/LXR-Luc/Her2 luciferase reporter bioassay
# Type: cell-based
# runParameters: Homo sapiens, THP-1, 72 h, 72 hours
Please provide measured pEC50 for the entries that follow.
In simple prose, pEC50 is minus the logarithm base ten of a concentration in moles per litre.

Entry under test: C[C@]1(C(=O)NC(=O)[C@@]2(C)CCC[C@]3(C)c4cc(NC(=O)[C@@H](N)CO)ccc4CC[C@@H]23)CCC[C@]2(C)c3cc(O)ccc3CC[C@@H]12 . Its pEC50 was 9.33

# pEC50 of C[C@]1(C(=O)NC(=O)[C@@]2(C)CCC[C@]3(C)c4cc(NC(=O)CN)ccc4CC[C@@H]23)CCC[C@]2(C)c3cc(O)ccc3CC[C@@H]12 = 9.19

pEC50 in this record for C[C@]1(C(=O)NC(=O)[C@@]2(C)CCC[C@]3(C)c4cc(O)ccc4CC[C@@H]23)CCC[C@]2(C)c3cc(N)ccc3CC[C@@H]12 : 8.55
